experiment: proliferation blockers of H69AR lung cancer cells, primary screen, cell-based, human, 86K library (AID 598); conditions: H69AR lung tumor viability, ATP luminescence, 72 h; at 10 µM; stronger effect = lower value;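 further: multidrug resistant small cell line overexpressing MRP-1 efflux transporter; 100% = mean luminescence of untreated control wells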
Among all 85,000 compounds or so, about 5,100 (6%) were called active. Many of the other results were omitted from the sample, so actives are more common in it than they were.
Note to self: viability under 70% means Met, ties and anything higher get Not met.

Recorded results for 3 molecules are shown here.
Sample smiles: CS(=O)(=O)N(CC(=O)N1CCN(c2ccc(F)cc2)CC1)C1CCCCC1
Label class: Not met
--
Sample smiles: O=C1CC(C(F)(F)C(F)(F)C(F)(F)C(F)(F)F)=Nc2ccccc2N1
Label class: Not met
--
Sample smiles: CC(C)OC(=O)CN1C(=O)C(=O)c2ccccc21
Label class: Met

Consider the molecule `CCOC(=O)N1CCN(C(=O)CN(C2CCCCC2)S(C)(=O)=O)CC1` . Is its viability strictly less than 70%? Not met

Consider the molecule `CS(=O)(=O)N(CC(=O)Nc1ccc(Cl)c(Cl)c1)C1CCCCC1` . Is its viability strictly less than 70%? Met

---

test: proliferation blockers of H69AR lung cancer cells, primary screen, cell-based, human, 86K library (AID 598); conditions: H69AR lung tumor viability, ATP luminescence, 72 h; at 10 µM; stronger effect = lower value
Screen size: about 85,000 compounds; about 5,100 (6%) were called active. Only a selection was taken, and actives are over-represented in it overall.
Reported endpoint: viability (%)
The figure you give is taken to be in %; do not add the unit.

Compound: CCOC(=O)NCc1ccc2c(c1)OCO2
Endpoint unit: %
viability: 113

Compound: CCCC(C)C(=O)Nc1ccc(NC(C)=O)cc1 (centres undefined)
Endpoint unit: %
viability: 103

Compound: Oc1ccc(-c2onc3ccc(Cl)cc23)cc1
Endpoint unit: %
viability: 98.2

Measured viability, `CCc1c(C)sc(NC(=O)c2cccs2)c1C(N)=O` : 99.7

Measured viability, `Cc1cccc(C)c1NC(=O)CCCSc1nnc(-c2ccco2)n1-c1ccccc1` : 34.3

Measured viability, `CCN1CCN(Cc2c(O)ccc3c(=O)c(-c4ccc(OC)c(OC)c4)c(C(F)(F)F)oc23)CC1` : 104

Measured viability, `COc1cccc(NC(=O)Cc2ccc(C)cc2)c1` : 97.9

Measured viability, `COc1ccc(CN(C(=O)CSc2nnc(-c3ccc(OC)c(OC)c3)o2)c2ccc(F)cc2)cc1` : 65.2

Measured viability, `CC1CCN(C(=O)c2cc3nc(C4CC4)cc(C(F)(F)F)n3n2)CC1` : 97.6

---

experiment: proliferation blockers of H69AR lung cancer cells, primary screen, cell-based, human, 86K library (AID 598); details: H69AR lung tumor viability, ATP luminescence, 72 h; at 10 µM
Hit rate of the full screen: of about 85,000 compounds, about 5,100 (6%) were called active.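 Rule for the calls: active = viability at or below 40%; inactive = viability above 40%.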 The full list was thinned out, with actives kept by preference.
Would you mind answering with one of these outcomes? active, inactive

Compound: COC(=O)Nc1c(C)n(C)n(-c2ccccc2)c1=O
Label class: inactive
//
Compound: O=C(NCCc1ccccc1)c1ccc(OCCOc2ccccc2)cc1
Label class: inactive

// return assay outcome for `CC(C)OC(=O)c1c(NC(=O)c2ccco2)sc2c1CCCC2` inactive

// return assay outcome for `Cc1cc(C(=O)Nc2c(C)n(C)n(-c3ccccc3)c2=O)cs1` inactive

// return assay outcome for CC(C)CNC(=O)CC(c1ccccc1)c1c(O)ccc2ccccc12 (centres undefined) inactive

// return assay outcome for CC1CC(C)CN(CC(=O)N2c3ccccc3CCc3ccccc32)C1 (centres undefined) inactive

// return assay outcome for `CC(C)(C)c1nc2ccccc2c(=O)n1N1C(=O)c2ccccc2C1=O` inactive

// return assay outcome for `CCCc1nc2ccccc2c(C(=O)OCC(=O)c2ccc3c(c2)NC(=O)CO3)c1CC` inactive

// return assay outcome for `Cc1ccc(-c2noc(CSc3nnc(-c4ccncc4)n3-c3ccc(F)cc3)n2)cc1` active

// return assay outcome for `COc1ccc(C(=O)c2oc3ccc(Br)cc3c2NC(C)=O)cc1` active

---

assay: proliferation blockers of H69AR lung cancer cells, primary screen, cell-based, human, 86K library (AID 598); conditions: H69AR lung tumor viability, ATP luminescence, 72 h; at 10 µM;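 further: multidrug resistant small cell line overexpressing MRP-1 efflux transporter; 100% = mean luminescence of untreated control wells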
Among all 85,000 compounds or so, about 5,100 (6%) were called active.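 How the source made its calls: active means viability at or below 40%; inactive means viability above 40%.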 Many of the other results were omitted from the sample, so actives are more common in it than they were.
Would you mind answering with one of these outcomes? 1 (yes) = active, 0 (no) = inactive

Compound: CCCc1[nH]nc2c1C(c1ccc(OC(=O)c3ccco3)cc1)C(C#N)=C(N)O2 (stereo unspecified)
Label class: 0 (no)

// return assay outcome for `CCN(c1ccccc1)S(=O)(=O)c1cccc(C(=O)O)c1` 0 (no)

// return assay outcome for `O=C(Nc1ccc2ccccc2c1)Nc1ccc2snnc2c1` 1 (yes)

// return assay outcome for `O=C(Cn1cnc2c(cnn2-c2ccc(F)cc2)c1=O)NCCc1ccccc1` 0 (no)

// return assay outcome for `Cc1ccc(N(Cc2ccc(C(=O)Nc3ccccc3C(=O)NCc3ccco3)cc2)S(C)(=O)=O)cc1C` 0 (no)

// return assay outcome for COC(=O)CSc1nc2c(c(C3CC=CCC3)c1C#N)CCC2 (stereo unspecified) 0 (no)

// return assay outcome for `C/C(=N\NS(=O)(=O)c1ccc(Br)cc1)c1cccs1` 0 (no)

// return assay outcome for `O=C(Nc1c(-c2ccccc2)nc2c(Br)cc(Br)cn12)c1ccco1` 1 (yes)

// return assay outcome for `Cc1ccc(NC(=O)N2CCC(c3nc4c(nnn4Cc4c(F)cccc4Cl)c(=O)[nH]3)CC2)cc1` 0 (no)

// return assay outcome for `C#CCNc1nc(C(C)C)nc2c1nnn2Cc1ccccc1F` 0 (no)

// return assay outcome for CC1(C)C2CCC13CS(=O)(=O)NC3C2 (stereo unspecified) 0 (no)

// return assay outcome for `Nc1c(C(=O)NCc2ccccc2)sc2nc3c(cc12)C(=O)CCC3` 0 (no)

// return assay outcome for `CCOc1ccc(Cn2nnc(C(=O)Nc3ccc(OC)cc3OC)c2N)cc1` 0 (no)

---

Reported viability values follow for various molecules
assay: proliferation blockers of H69AR lung cancer cells, primary screen, cell-based, human, 86K library (AID 598); settings: H69AR lung tumor viability, ATP luminescence, 72 h; at 10 µM; stronger effect = lower value;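 further: multidrug resistant small cell line overexpressing MRP-1 efflux transporter; 100% = mean luminescence of untreated control wells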
The whole screen tested about 85,000 compounds, of which about 5,100 (6%) were called active. The sample holds actives, similar compounds and a random draw of the others, so the mix is not that of the screen.

Measured viability, `CC(C)CCSc1ncnc2c1oc1nc3c(cc12)COC(C)(C)C3` : 68.6% (inactive)

Measured viability, `COc1ccc(C)c(Cn2c(-c3nonc3N)nc3ccccc32)c1` : 21% (active)

Measured viability, CCCCCOC(=O)c1ccc(N2C(=O)C3C4C=CC(C4)C3C2=O)cc1 (stereo unspecified) : 95.1% (inactive)

Measured viability, `CCN(CC)C(=O)CSc1ncnc2c1cnn2-c1ccccc1` : 86.5% (inactive)

Measured viability, `O=c1c2ccccc2nc(N/N=C/c2ccccc2)n1O` : 46.3% (inactive)

Measured viability, `CCC(=O)Nc1nc2ccccc2n1Cc1ccccc1C` : 65.7% (inactive)

---

Reported viability values follow for various compounds
assay: proliferation blockers of H69AR lung cancer cells, primary screen, cell-based, human, 86K library (AID 598); conditions: H69AR lung tumor viability, ATP luminescence, 72 h; at 10 µM; stronger effect = lower value;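 further: multidrug resistant small cell line overexpressing MRP-1 efflux transporter; 100% = mean luminescence of untreated control wells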
In all, about 85,000 compounds went through this assay and about 5,100 (6%) were called active. Shown is part of a subset that was picked to be rich in actives.
The figure you give is taken to be in %; do not add the unit.

Examples with their reported viability follow.
Compound: CCCCCN1CC(O)=C(c2nc(-c3ccc(Cl)cc3)cs2)C1=N
Endpoint unit: %
viability: 99
--
Compound: CCOC(=O)c1ccc(COC(=O)CCc2nc(-c3ccccc3)c(-c3ccccc3)o2)cc1
Endpoint unit: %
viability: 71.5
--
Compound: C=CCn1c(CSc2nc3ccccc3s2)nnc1SCC(=O)NCc1ccco1
Endpoint unit: %
viability: 54.6
--
Compound: O=C(NCc1ccco1)c1cc(-c2cccnc2)nc2ccc(Cl)cc12
Endpoint unit: %
viability: 68.3
--
Compound: O=C(NCc1cccnc1)Nc1ccccc1F
Endpoint unit: %
viability: 98.8

Measured viability, CCCOC(=O)c1[nH]c2c(c1C)C(=O)CC(c1cc(OC)c(OC)c(OC)c1)C2 (configuration not stated) : 80.3

Measured viability, CCCCNC(=O)C1CCCNC1=O (configuration not stated) : 98.9

Measured viability, `CCN(CC)CCn1c(=S)[nH]c2ncccc2c1=O` : 101

Measured viability, CC1Cc2ccccc2N1C(=O)c1cc2sccc2n1Cc1ccccc1 (configuration not stated) : 90.3

Measured viability, `C=CCn1c(SCC(=O)Nc2nc3ccccc3s2)nnc1-c1ccccc1O` : 27.4

Measured viability, `CC(C)(C)C(=O)Cn1c(NCCO)nc2ccccc21` : 98

Measured viability, `CCn1c(Cc2ccccc2)nnc1SCC(=O)Nc1ccccc1` : 90
